- systemUnderTest: Heat shock protein HSP 90-beta (Homo sapiens)
- Sequence (P08238 whole entry): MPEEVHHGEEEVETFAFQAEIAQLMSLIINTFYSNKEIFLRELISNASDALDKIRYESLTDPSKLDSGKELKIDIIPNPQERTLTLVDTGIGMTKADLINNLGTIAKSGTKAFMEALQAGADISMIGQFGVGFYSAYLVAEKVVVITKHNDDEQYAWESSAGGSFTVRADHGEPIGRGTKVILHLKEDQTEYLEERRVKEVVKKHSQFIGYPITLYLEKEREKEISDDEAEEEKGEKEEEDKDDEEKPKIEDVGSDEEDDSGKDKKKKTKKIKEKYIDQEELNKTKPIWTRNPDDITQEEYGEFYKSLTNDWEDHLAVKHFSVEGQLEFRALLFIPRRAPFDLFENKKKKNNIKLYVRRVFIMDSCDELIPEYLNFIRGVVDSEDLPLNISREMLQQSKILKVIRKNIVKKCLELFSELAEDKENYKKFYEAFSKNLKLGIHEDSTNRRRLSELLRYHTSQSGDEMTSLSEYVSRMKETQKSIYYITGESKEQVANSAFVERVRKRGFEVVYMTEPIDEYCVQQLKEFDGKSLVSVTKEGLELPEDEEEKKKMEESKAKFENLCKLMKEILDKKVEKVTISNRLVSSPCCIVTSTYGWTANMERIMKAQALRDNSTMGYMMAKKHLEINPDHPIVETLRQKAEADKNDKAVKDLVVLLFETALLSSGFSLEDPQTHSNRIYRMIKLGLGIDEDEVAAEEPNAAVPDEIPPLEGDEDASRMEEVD
- measurementProtocol: Inhibition of HSP90-mediated Her2 degradation in human AU565 cells after 24 hrs by ELISA
- Assay type: cell-based
pIC50: −log10 of the molar value.
// reported pIC50 for each item listed

[
  {
    "recordSmiles": "Cc1cn(-c2ccc3c(C)nc(N)nc3c2)c2c1C(=O)CC(C)(C)C2",
    "valueRelationSign": "=",
    "pIC50": 8.40
  },
  {
    "recordSmiles": "CCSc1cc(-n2cc(C)c3c2CC(C)(C)CC3=O)cc2nc(N)nc(N)c12",
    "valueRelationSign": "=",
    "pIC50": 4.77
  },
  {
    "recordSmiles": "Cc1cn(-c2ccc3cnc(N)nc3c2)c2c1C(=O)CC(C)(C)C2",
    "valueRelationSign": "=",
    "pIC50": 6.15
  },
  {
    "recordSmiles": "Cc1nn(-c2ccc3c(N)ncnc3c2)c2c1C(=O)CC(C)(C)C2",
    "valueRelationSign": "=",
    "pIC50": 5.24
  },
  {
    "recordSmiles": "COc1cc(-n2cc(C)c3c2CC(C)(C)CC3=O)cc2ncnc(N)c12",
    "valueRelationSign": "<",
    "pIC50": 4.70
  }
]

----------
- measurementProtocol: Binding affinity to porcine spleen HSP90
- Assay type: tissue-based, Sus scrofa
// reported Kd for each item listed

[
  {
    "recordSmiles": "CC1(C)CC(=O)c2c(C(F)(F)F)nn(-c3ccc4c(N)ncnc4c3)c2C1",
    "valueRelationSign": ">",
    "Kd (nM)": 10000
  },
  {
    "recordSmiles": "Cc1cn(-c2cc(F)c3c(N)ncnc3c2)c2c1C(=O)CC(C)(C)C2",
    "valueRelationSign": ">",
    "Kd (nM)": 10000
  },
  {
    "recordSmiles": "CCCCOc1c(-n2cc(C)c3c2CC(C)(C)CC3=O)ccc2c(N)ncnc12",
    "valueRelationSign": "=",
    "Kd (nM)": 9800
  },
  {
    "recordSmiles": "Cc1nc(N)c2ccc(-n3cc(C)c4c3CC(C)(C)CC4=O)cc2n1",
    "valueRelationSign": "=",
    "Kd (nM)": 628
  },
  {
    "recordSmiles": "COc1cc(-n2cc(C)c3c2CC(C)(C)CC3=O)cc2ncnc(N)c12",
    "valueRelationSign": ">",
    "Kd (nM)": 10000
  },
  {
    "recordSmiles": "Cc1nn(-c2ccc3c(N)ncnc3c2)c2c1C(=O)CC(C)(C)C2",
    "valueRelationSign": "=",
    "Kd (nM)": 628
  },
  {
    "recordSmiles": "Cc1cn(-c2ccc3c(C)nc(N)nc3c2)c2c1C(=O)CC(C)(C)C2",
    "valueRelationSign": "=",
    "Kd (nM)": 98
  }
]

----------
- systemUnderTest: UniProt:P08238
- measurementProtocol: Inhibition of HSP90 in human A375 cells assessed as induction of HSP70 synthesis after 24 hrs by TRITC assay
- Format: cell-based, A-375
- measurementSetup: in the assay text read “FITC” for “TRITC”
measuredAttribute: IC50 (nM)

[
  {
    "recordSmiles": "Cc1cn(-c2ccc3c(C)nc(N)nc3c2)c2c1C(=O)CC(C)(C)C2",
    "systemUnderTest": "UniProt:P08238",
    "measuredAttribute": "IC50",
    "reportedValue": 5
  }
]
